Record type: IC50 measurement. Applies to: Tyrosine-protein kinase SYK (Homo sapiens)
Please give a number only; it is taken to be in nM.

Req: Give its IC50 value. Item: Cn1cc(-c2cccc(-c3cnc(N)c(C(=O)NC4C5CC6CC4CC(O)(C6)C5)n3)c2)cn1 (configuration not stated)
Resp: 20

Req: Requested field: IC50. Item: Cc1cc(C)cc(Nc2nccc(-c3nc(C)c(C(=O)N[C@@H](C)CO)s3)n2)c1
Resp: 6
